assay: Cytotoxicity against HS-5 cells; type: cell-based; settings: human
METRIC NAME: IC50 at 24 h

INSERT INTO measurements (cpd_smiles, observed) VALUES
  ('O=C(Cc1ccc2ccccc2c1)N[C@H](Cc1ccccc1)C(=O)N[C@H](Cc1ccccc1)C(=O)NCCSP(=O)(O)O', '> 100 µM');
